Target: HNF4alpha2 (COS-7 nuclear extract) (Homo sapiens, UniProt P41235 1-474)
Sequence: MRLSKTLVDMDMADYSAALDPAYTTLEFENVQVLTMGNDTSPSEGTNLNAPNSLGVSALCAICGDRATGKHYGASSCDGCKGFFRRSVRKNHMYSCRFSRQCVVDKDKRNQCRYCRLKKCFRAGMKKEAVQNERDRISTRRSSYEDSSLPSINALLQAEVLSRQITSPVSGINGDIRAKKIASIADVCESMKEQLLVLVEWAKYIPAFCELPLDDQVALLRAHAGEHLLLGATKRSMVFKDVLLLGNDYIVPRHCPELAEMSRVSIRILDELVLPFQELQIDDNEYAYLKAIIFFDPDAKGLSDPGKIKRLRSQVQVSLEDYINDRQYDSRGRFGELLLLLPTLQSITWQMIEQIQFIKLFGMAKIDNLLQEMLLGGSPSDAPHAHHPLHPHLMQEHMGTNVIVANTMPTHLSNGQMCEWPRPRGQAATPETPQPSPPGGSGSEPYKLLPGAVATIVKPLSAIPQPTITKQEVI
Experiment: protein-binding microarray; COS-7 nuclear extract on double-stranded Agilent 4x180k PBM; binding buffer, salt, pH and temperature not given in the material; high values mean tight binding
Conditions: chain copies: 2; label: 3' end of strand 1 on the slide; dsDNA, one strand shown
Whole data set: some 18,000 sequences, median “log2 normalized intensity” near 0.39, cut for the highest 2% near 6.6. The list comes from a sample in which the highest values are over-represented; it also holds close analogues and randomly drawn sequences.
binding signal values by entry
Return type: number; implicit unit log2 normalized intensity.

Consider the reported binding signal for these sequences:
{"query.sequence": "TCTGATCCCAATTTATCTTTCCAGATTGTTGCCTAGGGAGATTAGAGTATCGGTCGA", "assay.target": "HNF4alpha2 (COS-7 nuclear extract) (Homo sapiens, UniProt P41235 1-474)", "quantitative.result": 0.501}
{"query.sequence": "GAGAAGTGAACTTTGCCCTCTCTTTCTGGAGCCTAGGGAGATTAGAGTATCGGTCGA", "assay.target": "HNF4alpha2 (COS-7 nuclear extract) (Homo sapiens, UniProt P41235 1-474)", "quantitative.result": 7.55}
{"query.sequence": "GTTTAACTGACCCAGGGAGAAAGGTCAGGGGCCTAGGGAGATTAGAGTATCGGTCGA", "assay.target": "HNF4alpha2 (COS-7 nuclear extract) (Homo sapiens, UniProt P41235 1-474)", "quantitative.result": 2.86}
{"query.sequence": "CTGAAGAATTTGGACTTTGCACTAAAAGCCGCCTAGGGAGATTAGAGTATCGGTCGA", "assay.target": "HNF4alpha2 (COS-7 nuclear extract) (Homo sapiens, UniProt P41235 1-474)", "quantitative.result": 6.95}

From here, focus on the item given below.
Per the records, this sequence ( GGCTTGATCCCTGAACTTTGCTCCCACCCTGCCTAGGGAGATTAGAGTATCGGTCGA ) has binding signal equal to 5.57

###

Target: HNF4alpha2 (COS-7 nuclear extract) (Homo sapiens, UniProt P41235 1-474)
Sequence: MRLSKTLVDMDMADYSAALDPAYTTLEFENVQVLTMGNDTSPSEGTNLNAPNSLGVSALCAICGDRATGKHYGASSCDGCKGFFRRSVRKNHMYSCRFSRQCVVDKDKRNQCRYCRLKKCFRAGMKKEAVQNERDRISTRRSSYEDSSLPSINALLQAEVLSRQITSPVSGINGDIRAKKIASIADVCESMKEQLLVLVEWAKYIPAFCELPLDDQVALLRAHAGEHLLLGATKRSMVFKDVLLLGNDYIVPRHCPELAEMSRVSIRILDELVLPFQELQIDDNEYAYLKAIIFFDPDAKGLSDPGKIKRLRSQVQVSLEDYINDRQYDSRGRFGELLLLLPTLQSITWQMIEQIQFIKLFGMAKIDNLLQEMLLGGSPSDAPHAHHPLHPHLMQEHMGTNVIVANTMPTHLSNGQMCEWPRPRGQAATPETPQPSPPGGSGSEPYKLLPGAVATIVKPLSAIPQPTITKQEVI
Test: protein-binding microarray; COS-7 nuclear extract on double-stranded Agilent 4x180k PBM; binding buffer, salt, pH and temperature not given in the material; high values mean tight binding
Conditions: chain copies: 2; label: 3' end of strand 1 on the slide; dsDNA, one strand shown
The full ranking holds about 18,000 sequences; the median of “log2 normalized intensity” is about 0.39, and the highest 2% start at about 6.6. Only a selection was taken, and the highest values are over-represented in it overall.
endpoint: binding signal (log2 normalized intensity)
Answer with a number only, understood to be in log2 normalized intensity.

{"query.sequence": "ATGTGACCTTTTGGACCACAGAGTGACCTGGCCTAGGGAGATTAGAGTATCGGTCGA", "binding signal, log2 normalized intensity": 5.16}
{"query.sequence": "AGTGAAGGTTCAGTGAAGTAGTGTGTATGAGCCTAGGGAGATTAGAGTATCGGTCGA", "binding signal, log2 normalized intensity": 2.27}

Memo: TGCACAACGACCCTTGCTCTGTTTTCTGACGCCTAGGGAGATTAGAGTATCGGTCGA , reported binding signal: 1.89

sequence GAGTTGGGGACAAAGTTCAAGGTCCAGCCTGCCTAGGGAGATTAGAGTATCGGTCGA , binding signal observed: 5.28

binding signal for TTCCTCCCTTGGAATGTGACCTTAGACCCCGCCTAGGGAGATTAGAGTATCGGTCGA is 8.18

response.value for CTCGAGGTGGACTTTCCCCCCTCACACTTTGCCTAGGGAGATTAGAGTATCGGTCGA (field: binding signal) = 5.25
